molecular target: integrin α3β1 (Homo sapiens, UniProt P05556+P26006); test: fluorescence polarization competition with fluorescent BOP probe
Sequence (P26006 33-872 limits assumed): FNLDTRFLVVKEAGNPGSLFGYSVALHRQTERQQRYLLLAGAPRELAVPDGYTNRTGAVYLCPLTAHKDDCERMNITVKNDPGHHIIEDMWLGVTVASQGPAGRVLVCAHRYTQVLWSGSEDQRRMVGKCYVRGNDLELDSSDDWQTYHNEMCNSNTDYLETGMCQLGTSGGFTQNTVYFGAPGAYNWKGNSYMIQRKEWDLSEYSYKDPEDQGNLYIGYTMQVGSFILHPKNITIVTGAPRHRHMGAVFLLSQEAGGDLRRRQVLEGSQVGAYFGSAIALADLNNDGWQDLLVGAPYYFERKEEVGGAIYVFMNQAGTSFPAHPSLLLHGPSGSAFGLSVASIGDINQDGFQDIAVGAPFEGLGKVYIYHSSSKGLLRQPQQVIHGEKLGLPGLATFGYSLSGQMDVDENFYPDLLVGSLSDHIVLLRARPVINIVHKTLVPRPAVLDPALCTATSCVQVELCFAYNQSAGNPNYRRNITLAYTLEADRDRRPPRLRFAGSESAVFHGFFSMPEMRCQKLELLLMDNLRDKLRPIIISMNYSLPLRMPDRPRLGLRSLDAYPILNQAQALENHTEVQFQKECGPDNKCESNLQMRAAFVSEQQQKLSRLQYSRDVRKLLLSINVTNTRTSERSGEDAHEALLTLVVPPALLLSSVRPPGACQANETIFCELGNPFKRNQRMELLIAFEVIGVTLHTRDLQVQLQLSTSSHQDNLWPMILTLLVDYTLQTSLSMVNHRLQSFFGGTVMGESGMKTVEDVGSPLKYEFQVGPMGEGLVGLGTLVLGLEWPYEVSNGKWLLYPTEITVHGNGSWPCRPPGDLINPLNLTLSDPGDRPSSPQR
Sequence (P26006 876-991 limits assumed): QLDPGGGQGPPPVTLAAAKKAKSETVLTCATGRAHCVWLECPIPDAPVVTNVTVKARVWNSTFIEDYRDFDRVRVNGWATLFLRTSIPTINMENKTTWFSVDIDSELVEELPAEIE
Sequence (P05556 21-728 limits assumed): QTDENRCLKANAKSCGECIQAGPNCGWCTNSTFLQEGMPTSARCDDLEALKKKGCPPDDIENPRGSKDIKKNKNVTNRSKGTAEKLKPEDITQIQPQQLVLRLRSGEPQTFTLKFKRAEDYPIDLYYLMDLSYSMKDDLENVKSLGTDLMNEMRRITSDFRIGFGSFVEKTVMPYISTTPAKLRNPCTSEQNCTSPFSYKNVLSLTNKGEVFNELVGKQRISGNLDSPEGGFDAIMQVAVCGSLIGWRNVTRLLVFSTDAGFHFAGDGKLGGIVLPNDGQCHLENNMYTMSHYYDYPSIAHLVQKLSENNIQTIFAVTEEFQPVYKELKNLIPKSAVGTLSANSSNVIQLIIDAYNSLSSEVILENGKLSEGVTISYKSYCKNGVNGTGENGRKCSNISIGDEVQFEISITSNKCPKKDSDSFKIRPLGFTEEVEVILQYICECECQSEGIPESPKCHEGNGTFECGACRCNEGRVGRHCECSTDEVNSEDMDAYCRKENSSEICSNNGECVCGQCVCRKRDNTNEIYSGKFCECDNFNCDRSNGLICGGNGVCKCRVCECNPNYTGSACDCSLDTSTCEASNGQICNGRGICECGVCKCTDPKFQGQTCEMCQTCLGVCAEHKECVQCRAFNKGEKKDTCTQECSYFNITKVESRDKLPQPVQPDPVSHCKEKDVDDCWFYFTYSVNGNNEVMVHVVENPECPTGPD
measurementKind: IC50 (nM)
Numeric only. Scale: nM

Query: Please look up its IC50: O=C(O)[C@H](Cc1ccc(OC(=O)N2CCCC2)cc1)NC(=O)[C@@H]1CCCN1S(=O)(=O)c1ccccc1
Reply: 31.2

###

molecular target: integrin α2β1 ectodomain (Homo sapiens, UniProt P05556+P17301); construct: ectodomain heterodimer; alpha with ACID coil and C-terminal StrepII tag, beta with BASE coil and His tag; Expi293 cells, separate pcDNA3.4 vectors; assay: fluorescence polarization competition with fluorescent BOP probe
Sequence (P17301 30-1129, one chain of several): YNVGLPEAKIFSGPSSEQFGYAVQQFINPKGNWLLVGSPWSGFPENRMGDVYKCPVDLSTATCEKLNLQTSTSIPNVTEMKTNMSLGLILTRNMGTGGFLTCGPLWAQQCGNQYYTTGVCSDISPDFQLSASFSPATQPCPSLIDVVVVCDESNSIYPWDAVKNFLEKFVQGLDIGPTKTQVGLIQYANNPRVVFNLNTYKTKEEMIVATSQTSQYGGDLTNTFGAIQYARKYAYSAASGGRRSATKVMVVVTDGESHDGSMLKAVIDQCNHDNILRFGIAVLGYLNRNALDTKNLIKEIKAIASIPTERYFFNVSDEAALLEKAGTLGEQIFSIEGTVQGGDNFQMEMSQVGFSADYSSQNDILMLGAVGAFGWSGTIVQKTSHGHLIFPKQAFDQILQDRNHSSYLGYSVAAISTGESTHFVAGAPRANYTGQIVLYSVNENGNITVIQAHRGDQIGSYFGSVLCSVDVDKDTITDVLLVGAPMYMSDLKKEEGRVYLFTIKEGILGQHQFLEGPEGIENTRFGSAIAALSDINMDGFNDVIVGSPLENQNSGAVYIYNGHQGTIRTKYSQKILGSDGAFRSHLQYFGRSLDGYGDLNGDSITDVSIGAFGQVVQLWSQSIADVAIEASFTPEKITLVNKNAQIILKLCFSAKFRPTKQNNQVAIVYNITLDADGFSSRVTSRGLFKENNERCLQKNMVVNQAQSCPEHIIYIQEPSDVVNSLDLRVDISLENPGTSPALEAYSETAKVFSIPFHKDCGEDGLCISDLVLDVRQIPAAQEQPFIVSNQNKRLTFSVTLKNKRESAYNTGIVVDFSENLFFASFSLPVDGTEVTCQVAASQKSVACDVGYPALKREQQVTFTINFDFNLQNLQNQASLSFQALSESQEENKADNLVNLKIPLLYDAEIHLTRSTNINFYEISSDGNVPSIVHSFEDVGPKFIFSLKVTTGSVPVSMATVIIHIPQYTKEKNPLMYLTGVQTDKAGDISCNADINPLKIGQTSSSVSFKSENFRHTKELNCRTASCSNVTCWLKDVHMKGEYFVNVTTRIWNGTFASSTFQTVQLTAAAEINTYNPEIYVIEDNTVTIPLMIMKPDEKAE
measurementKind: IC50 (nM)
Kindly answer with a numeric value in nM, unit omitted.

Query: API: value(readout= IC50, system= integrin α2β1 ectodomain (Homo sapiens, UniProt P05556+P17301), query= O=C(O)[C@H](Cc1ccc(OC(=O)N2CCCC2)cc1)NC(=O)[C@@H]1CCCN1S(=O)(=O)c1ccccc1 )
Reply: 16.2
